Measured AC50, listed per entry.
- target under test: Progesterone receptor (Homo sapiens, UniProt P06401)
- Sequence (P06401 whole entry): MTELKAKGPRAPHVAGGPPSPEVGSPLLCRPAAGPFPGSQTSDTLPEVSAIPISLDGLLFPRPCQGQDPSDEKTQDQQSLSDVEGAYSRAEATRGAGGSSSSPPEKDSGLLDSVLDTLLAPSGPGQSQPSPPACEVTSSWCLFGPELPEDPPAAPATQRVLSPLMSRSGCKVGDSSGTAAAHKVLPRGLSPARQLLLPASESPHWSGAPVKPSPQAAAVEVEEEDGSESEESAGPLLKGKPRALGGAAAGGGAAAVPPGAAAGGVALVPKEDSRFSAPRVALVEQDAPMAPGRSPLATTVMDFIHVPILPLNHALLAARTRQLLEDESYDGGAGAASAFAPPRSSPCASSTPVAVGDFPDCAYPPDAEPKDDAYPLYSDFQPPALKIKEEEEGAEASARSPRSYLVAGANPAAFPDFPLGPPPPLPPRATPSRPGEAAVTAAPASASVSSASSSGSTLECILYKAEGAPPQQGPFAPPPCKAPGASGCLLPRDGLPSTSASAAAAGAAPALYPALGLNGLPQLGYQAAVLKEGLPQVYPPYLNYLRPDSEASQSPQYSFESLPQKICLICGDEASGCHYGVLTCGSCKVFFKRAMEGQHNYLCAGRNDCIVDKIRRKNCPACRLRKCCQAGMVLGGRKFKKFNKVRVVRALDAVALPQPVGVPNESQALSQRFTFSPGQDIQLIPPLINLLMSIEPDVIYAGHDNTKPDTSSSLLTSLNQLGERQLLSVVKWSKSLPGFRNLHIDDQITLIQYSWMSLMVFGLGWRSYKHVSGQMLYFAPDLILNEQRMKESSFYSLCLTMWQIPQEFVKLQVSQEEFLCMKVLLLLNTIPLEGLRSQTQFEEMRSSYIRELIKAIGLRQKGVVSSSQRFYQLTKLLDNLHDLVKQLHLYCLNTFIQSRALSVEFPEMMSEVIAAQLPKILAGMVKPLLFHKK

Sample records with AC50:
>  <compound>
COc1cccc2c1C(=O)c1c(O)c3c(c(O)c1C2=O)C[C@@](O)(C(=O)CO)C[C@@H]3O[C@H]1C[C@H](N)[C@H](O[C@@H]2CCCCO2)[C@H](C)O1 [PIRARUBICIN]

>  <AC50>
> 30 µM

$$$$
>  <compound>
C[C@]12CC[C@@H]3c4ccc(OC(=O)N(CCCl)CCCl)cc4CC[C@H]3[C@@H]1CC[C@@H]2OP(=O)(O)O [ESTRAMUSTINE PHOSPHATE]

>  <AC50>
> 30 µM

$$$$

Now for a further compound.
Q) Query for Progesterone receptor (Homo sapiens, UniProt P06401): what AC50 does the record show for Nc1ccn(C[C@@H](CO)OCP(=O)(O)O)c(=O)n1 [CIDOFOVIR] ?
A) > 30 µM

----------
- target under test: UniProt:P41595
- Sequence (P41595 whole entry): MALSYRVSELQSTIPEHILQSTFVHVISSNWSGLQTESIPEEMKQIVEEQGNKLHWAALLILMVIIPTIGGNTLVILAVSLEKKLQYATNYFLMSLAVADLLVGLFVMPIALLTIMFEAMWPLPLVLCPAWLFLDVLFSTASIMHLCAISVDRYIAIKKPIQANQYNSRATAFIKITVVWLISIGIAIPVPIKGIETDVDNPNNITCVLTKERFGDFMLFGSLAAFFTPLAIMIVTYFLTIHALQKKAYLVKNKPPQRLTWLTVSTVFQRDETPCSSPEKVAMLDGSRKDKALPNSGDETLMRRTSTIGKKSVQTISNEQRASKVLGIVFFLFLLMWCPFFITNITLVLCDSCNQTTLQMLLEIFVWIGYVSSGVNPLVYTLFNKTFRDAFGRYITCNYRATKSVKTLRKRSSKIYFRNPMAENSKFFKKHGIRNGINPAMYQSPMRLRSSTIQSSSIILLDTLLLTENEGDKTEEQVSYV
- Format: functional, cell-based
Measured AC50, listed per entry.

Sample records with AC50:
>  <compound>
COc1nc(C)nc(Cl)c1N=C1NCCN1 [MOXONIDINE]

>  <measure>
AC50

>  <reported>
> 30 µM

$$$$
>  <compound>
CN(C)CCc1c[nH]c2ccc(CS(=O)(=O)N3CCCC3)cc12 [ALMOTRIPTAN]

>  <measure>
AC50

>  <reported>
11 µM

$$$$
>  <compound>
CC(=O)Oc1ccccc1C(=O)O [ASPIRIN]

>  <measure>
AC50

>  <reported>
> 10 µM

$$$$
>  <compound>
Cc1c(C)c2c(c(C)c1O)CCC(C)(COc1ccc(CC3SC(=O)NC3=O)cc1)O2 (configuration not stated) [TROGLITAZONE]

>  <measure>
AC50

>  <reported>
> 30 µM

$$$$
>  <compound>
CN(C)CCOC(c1ccc(Cl)cc1)c1ccccn1 (configuration not stated) [CARBINOXAMINE]

>  <measure>
AC50

>  <reported>
> 30 µM

$$$$
>  <compound>
CCC(NC(C)C)C(O)c1ccc(O)c(O)c1 (configuration not stated) [ISOETHARINE]

>  <measure>
AC50

>  <reported>
> 30 µM

$$$$

Q) # AC50 lookup, item CN(C)CCCC1(c2ccc(F)cc2)OCc2cc(C#N)ccc21 (configuration not stated) [CITALOPRAM]
A) > 30 µM

Q) # AC50 lookup, item C[C@@H](O)[C@H]1C(=O)N2C(C(=O)O)=C(SCCN=CN)C[C@H]12 [IMIPENEM ANHYDROUS]
A) > 300 µM

Q) # AC50 lookup, item CC(C)C[C@H](NC(=O)[C@H](Cc1ccccc1)NC(=O)c1cnccn1)B(O)O [BORTEZOMIB]
A) > 30 µM

Q) # AC50 lookup, item O=C(O)c1ccc2nc(-c3cc(Cl)cc(Cl)c3)oc2c1
A) > 30 µM

Q) # AC50 lookup, item O=C1CN=C(c2ccccc2Cl)c2cc([N+](=O)[O-])ccc2N1 [CLONAZEPAM]
A) > 10 µM

Q) # AC50 lookup, item CC(C)(C)NCC(O)COc1ccccc1C#N (configuration not stated) [BUNITROLOL]
A) > 30 µM

----------
- target under test: Progesterone receptor (Homo sapiens, UniProt P06401)
- Assay type: functional
Measured AC50, listed per entry.

Q) # AC50 lookup, item COc1ccc(-n2nc(C(N)=O)c3c2C(=O)N(c2ccc(N4CCCCC4=O)cc2)CC3)cc1
A) > 30 µM
